# TESTED_TARGET: Bovine Striatum (3H-CCK-8-(SO3 H) receptor binding) (Bos taurus, UniProt P79266)
# Construct: tissue homogenate (striatum approximately 0.26 mg protein in 2 mL final volume); from tissue; host or cells: bovine striatum membrane homogenate
# Sequence (P79266 1-454): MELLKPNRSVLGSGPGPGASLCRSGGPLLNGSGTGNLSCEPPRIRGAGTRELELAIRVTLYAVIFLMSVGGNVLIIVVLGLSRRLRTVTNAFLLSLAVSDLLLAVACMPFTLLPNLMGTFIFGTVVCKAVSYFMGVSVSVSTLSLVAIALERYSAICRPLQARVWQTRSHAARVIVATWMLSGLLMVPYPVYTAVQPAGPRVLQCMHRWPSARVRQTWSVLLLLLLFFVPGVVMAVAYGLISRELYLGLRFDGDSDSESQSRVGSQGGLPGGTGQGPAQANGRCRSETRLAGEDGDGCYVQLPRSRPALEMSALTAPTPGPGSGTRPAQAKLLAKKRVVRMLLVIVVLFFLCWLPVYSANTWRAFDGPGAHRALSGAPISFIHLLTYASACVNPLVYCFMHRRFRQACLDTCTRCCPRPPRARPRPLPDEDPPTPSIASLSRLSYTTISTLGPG
# PROTOCOL: In vitro receptor binding assay, 3H-CCK-8-(SO3H), bovine striatum homogenate
# ASSAY_SETUP: 3H-CCK-8-(SO3H) 0.15 nM, 30 min at 25° C., bovine striatum homogenate; read-out: Bovine Striatum IC50 (concentration to inhibit 50% of specific 3H-CCK-8-(SO3H) binding)
Starred links: 1 amine or outer side, 2 acyl side, 3 side chain; linkers in the order of their positions; H or OH if unused. Positions of bridges follow the written chain, without caps; N, C: chain ends. Non-standard residues stand in square brackets, D forms with d. Residues, ends and D or L forms follow the SMILES beside them. X9 = O=C(C(Cc1ccc(-c2nnn[nH]2)cc1)N[*:1])[*:2]; NMeF = CN[C@@H](Cc1ccccc1)C(=O)O
Below, each of the molecules is paired with its reported pIC50 value.
Quick note: pIC50 values are minus log10 of concentrations in mol/L.

The measured pIC50 associated with CSCC[C@@H]1NC(=O)[C@H](Cc2c[nH]c3ccccc23)NC(=O)CNC(=O)[C@@H](NC(=O)C(Cc2ccc(-c3nnn[nH]3)cc2)NC(C)=O)CCCCNC(=O)C[C@@H](C(=O)N(C)[C@@H](Cc2ccccc2)C(N)=O)NC1=O (some centres unmarked) [Example 57] (Ac-[X9]KGWMD[NMeF]-NH2; lactam 2-6) reads 6.24

###

# TESTED_TARGET: rat pancreas (3H-CCK-8-(SO3 H) receptor binding) (Rattus norvegicus)
# Construct: pancreas approximately 0.100 mg protein in 1 mL final volume; from tissue; host or cells: rat pancreas membrane homogenate
# Sequence (P30551 1-444): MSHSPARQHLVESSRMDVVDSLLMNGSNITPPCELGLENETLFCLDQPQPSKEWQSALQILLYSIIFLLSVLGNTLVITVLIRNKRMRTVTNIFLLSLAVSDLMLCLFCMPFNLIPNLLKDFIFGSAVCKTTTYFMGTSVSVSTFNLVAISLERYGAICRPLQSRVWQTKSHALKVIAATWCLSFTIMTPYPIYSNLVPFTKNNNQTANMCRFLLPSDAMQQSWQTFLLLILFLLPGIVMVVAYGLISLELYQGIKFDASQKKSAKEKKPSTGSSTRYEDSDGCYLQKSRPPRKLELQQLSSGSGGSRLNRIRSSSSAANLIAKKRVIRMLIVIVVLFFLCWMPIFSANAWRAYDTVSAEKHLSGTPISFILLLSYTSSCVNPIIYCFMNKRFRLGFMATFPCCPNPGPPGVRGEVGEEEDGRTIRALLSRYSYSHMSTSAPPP
# PROTOCOL: In vitro receptor binding assay, 3H-CCK-8-(SO3H), rat pancreas homogenate
# ASSAY_SETUP: 3H-CCK-8-(SO3H) 0.15 nM, 30 min at 25° C., rat pancreas homogenate; read-out: Rate Pancreas IC50 (concentration to inhibit 50% of specific 3H-CCK-8-(SO3H) binding)
pIC50: −log10 of the molar value. Starred links: 1 amine or outer side, 2 acyl side, 3 side chain; linkers in the order of their positions; H or OH if unused. Positions of bridges follow the written chain, without caps; N, C: chain ends. Non-standard residues stand in square brackets, D forms with d. Residues, ends and D or L forms follow the SMILES beside them. ξ: configuration not given here. *: point of attachment. Propanoyl(3-(4-HOOCCH2-Ph)) = O=C(O)Cc1ccc(CCC(=O)*)cc1; X6 = O=C([C@H](Cc1ccc(Cc2nnn[nH]2)cc1)N[*:1])[*:2]; X5 = CCOC(=O)Cc1ccc(C[C@H](N[*:1])C(=O)[*:2])cc1; X12 = O=C(O)Cc1cccc(CC(N[*:1])C(=O)[*:2])c1; ξPhe(4-COOH) = NC(Cc1ccc(C(=O)O)cc1)C(=O)O; X10 = O=C(CCc1ccc(-c2nn[nH]n2)cc1)*; NMeF = CN[C@@H](Cc1ccccc1)C(=O)O; Nle = CCCC[C@H](N)C(=O)O
MEASUREMENT_KIND: pIC50

CSCC[C@H](NC(=O)C(Cc1cccc(CC(=O)O)c1)NC(C)=O)C(=O)NCC(=O)N[C@@H](Cc1c[nH]c2ccccc12)C(=O)N[C@@H](CCSC)C(=O)N[C@@H](CC(=O)O)C(=O)N[C@@H](Cc1ccccc1)C(N)=O (some centres unmarked) [Example 58] (Ac-[X12]MGWMDF-NH2)
7.64
CCCC[C@H](NC(=O)[C@H](Cc1ccc(Cc2nnn[nH]2)cc1)NC(C)=O)C(=O)NCC(=O)N[C@@H](Cc1c[nH]c2ccccc12)C(=O)N[C@@H](CCCC)C(=O)N[C@@H](CC(=O)O)C(=O)N(C)[C@@H](Cc1ccccc1)C(N)=O [Example 65] (Ac-[X6][Nle]GW[Nle]D[NMeF]-NH2)
6.59
CSCC[C@@H]1NC(=O)[C@H](Cc2c[nH]c3ccccc23)NC(=O)CNC(=O)[C@@H](NC(=O)CCc2ccc(-c3nn[nH]n3)cc2)CCCCNC(=O)C[C@@H](C(=O)N(C)[C@@H](Cc2ccccc2)C(N)=O)NC1=O [Example 68] (X10-KGWMD[NMeF]-NH2; lactam 1-5)
5.54
CSCC[C@H](NC(=O)C(Cc1ccc(C(=O)O)cc1)NC(C)=O)C(=O)NCC(=O)N[C@@H](Cc1c[nH]c2ccccc12)C(=O)N[C@@H](CCSC)C(=O)N[C@@H](CC(=O)O)C(=O)N[C@@H](Cc1ccccc1)C(N)=O (some centres unmarked) [Example 43] (Ac-[ξPhe(4-COOH)]MGWMDF-NH2)
7.21
CCCC[C@H](NC(=O)CCc1ccc(CC(=O)O)cc1)C(=O)N[C@H](C)C(=O)N[C@@H](Cc1c[nH]c2ccccc12)C(=O)N[C@@H](CCCC)C(=O)N[C@@H](CC(=O)O)C(=O)N(C)[C@@H](Cc1ccccc1)C(N)=O [Example 71] ({Propanoyl(3-(4-HOOCCH2-Ph))}-[Nle][dA]W[Nle]D[NMeF]-NH2)
5.74
CCOC(=O)Cc1ccc(C[C@H](NC(C)=O)C(=O)N[C@@H](CCSC)C(=O)NCC(=O)N[C@@H](Cc2c[nH]c3ccccc23)C(=O)N[C@@H](CCSC)C(=O)N[C@@H](CC(=O)OCC)C(=O)N[C@@H](Cc2ccccc2)C(N)=O)cc1 [Example 50] (Ac-[X5]MGWMD(OEt)F-NH2)
5.44
CSCC[C@H](NC(=O)CCc1ccc(CC(=O)O)cc1)C(=O)NCC(=O)N[C@@H](Cc1c[nH]c2ccccc12)C(=O)N[C@@H](CCSC)C(=O)N[C@@H](CC(=O)O)C(=O)N(C)[C@@H](Cc1ccccc1)C(N)=O [Example 69] ({Propanoyl(3-(4-HOOCCH2-Ph))}-MGWMD[NMeF]-NH2)
8.74

###

Below, each of the compounds is paired with its reported IC50 value.
# TESTED_TARGET: Bovine Striatum (3H-CCK-8-(SO3 H) receptor binding) (Bos taurus, UniProt P79266)
# Construct: tissue homogenate (striatum approximately 0.26 mg protein in 2 mL final volume); from tissue; host or cells: bovine striatum membrane homogenate
# PROTOCOL: In vitro receptor binding assay, 3H-CCK-8-(SO3H), bovine striatum homogenate
# ASSAY_SETUP: 3H-CCK-8-(SO3H) 0.15 nM, 30 min at 25° C., bovine striatum homogenate; read-out: Bovine Striatum IC50 (concentration to inhibit 50% of specific 3H-CCK-8-(SO3H) binding)
Starred links: 1 amine or outer side, 2 acyl side, 3 side chain; linkers in the order of their positions; H or OH if unused. Non-standard residues stand in square brackets, D forms with d. Residues, ends and D or L forms follow the SMILES beside them. ξ: configuration not given here. *: point of attachment. Propanoyl(3-(4-HOOCCH2-Ph)) = O=C(O)Cc1ccc(CCC(=O)*)cc1; X7 = O=C(C(Cc1ccc(-c2nn[nH]n2)cc1)N[*:1])[*:2]; X8 = O=C(C(Cc1ccc(Cc2nn[nH]n2)cc1)N[*:1])[*:2]; ξPhe(4-COOH) = NC(Cc1ccc(C(=O)O)cc1)C(=O)O; NMeF = CN[C@@H](Cc1ccccc1)C(=O)O; Nle = CCCC[C@H](N)C(=O)O
Use nM as the unit, but write only the number.

Example entries begin here.
CSCC[C@H](NC(=O)CCc1ccc(CC(=O)O)cc1)C(=O)NCC(=O)N[C@@H](Cc1c[nH]c2ccccc12)C(=O)N[C@@H](CCSC)C(=O)N[C@@H](CC(=O)O)C(=O)N(C)[C@@H](Cc1ccccc1)C(N)=O [Example 69] ({Propanoyl(3-(4-HOOCCH2-Ph))}-MGWMD[NMeF]-NH2)
3.2
CCCC[C@H](NC(=O)C(Cc1ccc(Cc2nn[nH]n2)cc1)NC(C)=O)C(=O)NCC(=O)N[C@@H](Cc1c[nH]c2ccccc12)C(=O)N[C@@H](CCCC)C(=O)N[C@@H](CC(=O)O)C(=O)N(C)[C@@H](Cc1ccccc1)C(N)=O (stereo partly shown) [Example 63] (Ac-[X8][Nle]GW[Nle]D[NMeF]-NH2)
260
CCCC[C@H](NC(=O)CCc1ccc(CC(=O)O)cc1)C(=O)NCC(=O)N[C@@H](Cc1c[nH]c2ccccc12)C(=O)N[C@@H](CCCC)C(=O)N[C@@H](CC(=O)O)C(=O)N(C)[C@@H](Cc1ccccc1)C(N)=O [Example 70] ({Propanoyl(3-(4-HOOCCH2-Ph))}-[Nle]GW[Nle]D[NMeF]-NH2)
200
CSCC[C@H](NC(=O)C(Cc1ccc(-c2nn[nH]n2)cc1)NC(C)=O)C(=O)NCC(=O)N[C@@H](Cc1c[nH]c2ccccc12)C(=O)N[C@@H](CCSC)C(=O)N[C@@H](CC(=O)O)C(=O)N[C@@H](Cc1ccccc1)C(N)=O (stereo partly shown) [Example 53] (Ac-[X7]MGWMDF-NH2)
1.6
CSCC[C@H](NC(=O)C(Cc1ccc(Cc2nn[nH]n2)cc1)NC(C)=O)C(=O)NCC(=O)N[C@@H](Cc1c[nH]c2ccccc12)C(=O)N[C@@H](CCSC)C(=O)N[C@@H](CC(=O)O)C(=O)N[C@@H](Cc1ccccc1)C(N)=O (stereo partly shown) [Example 60] (Ac-[X8]MGWMDF-NH2)
340

Field: next compound
The measured IC50 associated with CSCC[C@H](NC(=O)C(Cc1ccc(C(=O)O)cc1)NC(C)=O)C(=O)NCC(=O)N[C@@H](Cc1c[nH]c2ccccc12)C(=O)N[C@@H](CCSC)C(=O)N[C@@H](CC(=O)O)C(=O)N[C@@H](Cc1ccccc1)C(N)=O (stereo partly shown) [Example 43] (Ac-[ξPhe(4-COOH)]MGWMDF-NH2) reads 34

Source: patent US5508437A
